# system_name: Hepatocyte nuclear factor 4-alpha (Homo sapiens) (UniProt P41235)
# Sequence (P41235 whole entry, looked up): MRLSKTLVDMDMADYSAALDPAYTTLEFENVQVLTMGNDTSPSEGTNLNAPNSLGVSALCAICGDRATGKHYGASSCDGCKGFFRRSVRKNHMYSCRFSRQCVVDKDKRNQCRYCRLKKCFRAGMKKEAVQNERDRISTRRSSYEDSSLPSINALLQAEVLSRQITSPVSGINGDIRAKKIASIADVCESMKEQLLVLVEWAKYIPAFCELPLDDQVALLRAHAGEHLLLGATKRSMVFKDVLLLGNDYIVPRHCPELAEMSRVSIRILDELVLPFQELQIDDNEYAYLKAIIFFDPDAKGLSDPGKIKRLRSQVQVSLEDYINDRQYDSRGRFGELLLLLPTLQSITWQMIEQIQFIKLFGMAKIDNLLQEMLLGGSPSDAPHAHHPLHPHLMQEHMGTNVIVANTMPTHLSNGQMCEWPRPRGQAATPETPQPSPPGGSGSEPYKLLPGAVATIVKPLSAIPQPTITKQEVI
# measurement_protocol: HNF4 dimerization inhibitors, dose response, counter-screen for ABHD5-PLIN5 interaction inhibitor project, biochemical, luminescence, round 2 (AID 652123)
# test_conditions: HNF4 dimerization biochemical luminescence assay
Activity calls are given as the source filed them. The rule behind the calls is not given here.
Your answer must be one of the following: y for active, n for inactive

What was the test verdict on CN1C(=O)c2ccccc2Oc2ccc(NC(=O)c3cccs3)cc21 ?
n

What was the test verdict on CN(C)CCCN(C(=O)CCc1ccccc1)c1nc2ccc(Cl)cc2s1 ?
n

What was the test verdict on Cc1ccc(CS(=O)(=O)c2ncc(Cl)c(C(=O)Nc3nnc(C(C)C)s3)n2)cc1 ?
n

What was the test verdict on CCCC(=O)Nc1ccc2c(c1)C(=O)N(C)c1ccccc1O2 ?
n

What was the test verdict on CN1C(=O)c2ccccc2Sc2ccc(NC(=O)NCCCc3ccccc3)cc21 ?
n

What was the test verdict on CCS(=O)(=O)c1ncc(Cl)c(C(=O)Nc2ccc(S(N)(=O)=O)cc2)n1 ?
y

What was the test verdict on CN1C(=O)c2ccccc2Oc2ccc(NC(=O)c3cc4ccccc4[nH]3)cc21 ?
n

What was the test verdict on CS(=O)(=O)c1ncc(Cl)c(C(=O)Nc2ccc(C(F)(F)F)cc2)n1 ?
y

* * *

# system_name: Hepatocyte nuclear factor 4-alpha (Homo sapiens) (UniProt P41235)
# measurement_protocol: HNF4 dimerization inhibitors, dose response, counter-screen for ABHD5-PLIN5 interaction inhibitor project, biochemical, luminescence, round 2 (AID 652123)
# test_conditions: HNF4 dimerization biochemical luminescence assay
Activity calls are given as the source filed them. No rule for the calls is given here.
Task for the reader: assign each of the following molecules its reported IC50.

What measured IC50 goes with CN1C(=O)c2ccccc2Sc2ccc(NC(=O)NCCc3ccccc3)cc21 ?
> 39.8 µM (inactive)

What measured IC50 goes with CCCNC(=O)Nc1ccc2c(c1)N(CC)C(=O)c1ccccc1S2 ?
> 39.8 µM (inactive)

What measured IC50 goes with CN(C)CCCN(C(=O)c1cc2ccccc2oc1=O)c1nc2ccc(Cl)cc2s1 ?
> 39.8 µM (inactive)

What measured IC50 goes with Cc1ccc(CS(=O)(=O)c2ncc(Cl)c(C(=O)NCc3ccc4c(c3)OCO4)n2)cc1 ?
1.87 µM

What measured IC50 goes with CC(C)N1C(=O)c2ccccc2Oc2ccc(NC(=O)c3ccccc3)cc21 ?
> 39.8 µM (inactive)

What measured IC50 goes with CCCC(=O)N(CCCN1CCOCC1)c1nc2ccc(Cl)cc2s1 ?
> 39.8 µM (inactive)

What measured IC50 goes with NS(=O)(=O)c1ccc(NC(=O)c2nc(S(=O)(=O)Cc3ccccc3)ncc2Cl)cc1 ?
3.81 µM

What measured IC50 goes with CCCCCNC(=O)Nc1ccc2c(c1)Sc1ccccc1C(=O)N2C ?
> 39.8 µM (inactive)

What measured IC50 goes with CCCS(=O)(=O)c1ncc(Cl)c(C(=O)Nc2ccc(C(=O)OC)cc2)n1 ?
4.99 µM

What measured IC50 goes with CN(C)CCCN(C(=O)C1CCCCC1)c1nc2cc(Cl)ccc2s1 ?
> 39.8 µM (inactive)

* * *

# system_name: Hepatocyte nuclear factor 4-alpha (Homo sapiens) (UniProt P41235)
# measurement_protocol: HNF4 dimerization inhibitors, dose response, counter-screen for ABHD5-PLIN5 interaction inhibitor project, biochemical, luminescence, round 2 (AID 652123)
# test_conditions: HNF4 dimerization biochemical luminescence assay
The source made the active and inactive calls. The rule behind the calls is not given here.
Your answer must be one of the following: active, inactive

What was the test verdict on O=C(c1nc(S(=O)(=O)Cc2ccccc2)ncc1Cl)N(Cc1ccccc1)Cc1ccco1 ?
active

What was the test verdict on CN(C(=O)c1nc(S(C)(=O)=O)ncc1Cl)c1ccccc1 ?
active

What was the test verdict on Cc1ccc(NC(=O)c2nc(S(C)(=O)=O)ncc2Cl)cc1 ?
active

What was the test verdict on CN(C)CCCN(C(=O)Cc1ccc(F)cc1)c1nc2ccc(Cl)cc2s1 ?
inactive

What was the test verdict on CN1C(=O)c2ccccc2Sc2ccc(NC(=O)NCCc3cccs3)cc21 ?
inactive

What was the test verdict on Cc1ccc(CS(=O)(=O)c2ncc(Cl)c(C(=O)Nc3cccc4ccccc34)n2)cc1 ?
active

What was the test verdict on Cc1ccc2c(CC(=O)N3CCN(S(=O)(=O)c4ccc5c(c4)OCCCO5)CC3)coc2c1C ?
inactive

What was the test verdict on COc1ccc(CCNC(=O)c2nc(S(=O)(=O)Cc3ccc(F)cc3)ncc2Cl)cc1OC ?
active

What was the test verdict on Cc1ccc(CS(=O)(=O)c2ncc(Cl)c(C(=O)N3CCN(C)CC3)n2)cc1 ?
active

What was the test verdict on CCCCCCNC(=O)Nc1ccc2c(c1)Sc1ccccc1C(=O)N2C ?
inactive

What was the test verdict on CCCS(=O)(=O)c1ccc(Cl)c(C(=O)Nc2ccc(C(=O)OCC)cc2)c1 ?
active

What was the test verdict on COc1ccc(CC(=O)N2CCCN(S(=O)(=O)c3ccc(C)cc3)CC2)cc1OC ?
inactive

What was the test verdict on O=C(Cc1cccc(F)c1)N1CCN(S(=O)(=O)c2ccc3c(c2)OCCO3)CC1 ?
inactive

What was the test verdict on CCCC(=O)Nc1ccc2c(c1)C(=O)N(C)c1cc(C)ccc1O2 ?
inactive

What was the test verdict on CN(C)CCCN(C(=O)C1CCCCC1)c1nc2cc(Br)ccc2s1 ?
inactive

What was the test verdict on CCCCCCCNC(=O)Nc1ccc2c(c1)Sc1ccccc1C(=O)N2C ?
inactive

What was the test verdict on O=C(Nc1ccc2ccccc2c1)c1nc(S(=O)(=O)Cc2ccccc2)ncc1Cl ?
active

What was the test verdict on CC(NC(=O)CN1CCN(S(=O)(=O)c2ccc3c(c2)OCCCO3)CC1)c1cc2ccccc2o1 (stereo unspecified) ?
inactive

What was the test verdict on O=C(Cc1ccc2c(c1)CCCC2)N1CCN(S(=O)(=O)c2ccc3c(c2)OCCO3)CC1 ?
inactive

What was the test verdict on Cc1ccc(CS(=O)(=O)c2ncc(Cl)c(C(=O)Nc3cccc(C(F)(F)F)c3)n2)cc1 ?
active

What was the test verdict on CCS(=O)(=O)c1ncc(Cl)c(C(=O)Nc2ccc(C)cc2)n1 ?
active
